These measurements were taken from ChEMBL document CHEMBL3352038.

Assay: Fraction unbound in rat plasma at 0.1 uM
Type: ADME, cell-free
Non-standard residues stand in square brackets, D forms with d. Residues, ends and D or L forms follow the SMILES beside them. *: point of attachment. Dolaproine = CO[C@@H]([C@@H]1CCCN1)[C@@H](C)C(=O)O; Dil = CC[C@H](C)[C@H](NC)[C@@H](CC(=O)O)OC; Doe = c1ccc(C[C@H](N*)c2nccs2)cc1; Aib = CC(C)(N)C(=O)O
property measured: fraction unbound at 0.1 µM
Answer using only a numeral; do not append any unit.

# query: fraction unbound at 0.1 µM of entry CC[C@H](C)[C@@H]([C@@H](CC(=O)N1CCC[C@H]1[C@H](OC)[C@@H](C)C(=O)N[C@@H](Cc1ccccc1)c1nccs1)OC)N(C)C(=O)[C@@H](NC(=O)C(C)(C)N)C(C)C (H-[Aib]V[Dil][Dolaproine]-Doe) 0.1
